Tested on: Neuregulin-1 EGF-like domain
Test description: binders of neuregulin-1 EGF-like domain, primary screen, biochemical, small-molecule microarray, 635 nm fluorescence (AID 1081);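 note: binding of the protein to compounds printed on small-molecule microarray slides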
Recorded conditions: small-molecule microarray binding, higher = more signal
Measurement label: composite z-score
Keep the answer to the number alone.

C[C@H]1COC(=O)[C@@H]2CCCN2C(=O)[C@@H](C)COC(=O)[C@@H]2CCCN2C1=O; -0.436
C=C(COC)/C(=C/C[C@@H](OC(C)=O)c1cccc(OCCO)c1)c1cc(C(=O)OC)ccc1OC; 0.597
C=CC[C@]1(C(=O)NCC(O)CO)N=C(c2ccc(OCCCO)cc2)O[C@H]1c1ccccc1 (some centres undefined); 1.25

Q: Answer with the recorded composite z-score for the compound listed here: `CC(=O)NCCCC[C@@H]1NC(=O)[C@@H]2C[C@H](C(=O)NCc3ccc(F)cc3)[C@H](c3cccc(OCCO)c3)N2C1=O`
Ans: 1.36
